tgt: Prostaglandin E synthase (Homo sapiens) (UniProt O14684)
Sequence (O14684 whole entry): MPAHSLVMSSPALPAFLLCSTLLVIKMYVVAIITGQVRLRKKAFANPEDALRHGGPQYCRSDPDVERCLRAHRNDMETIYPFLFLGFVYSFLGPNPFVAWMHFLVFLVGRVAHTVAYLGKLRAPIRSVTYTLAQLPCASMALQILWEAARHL
protocol: Inhibition of mPGES1 in IL1-beta induced human A549 cell microsomal membrane at 10 uM assessed as enzyme residual activity by PGE2 formation assay relative to untreated control
Assay type: microsomes
run_parameters: Microsome
observation_type: Activity (%)

Some solved entries appear below for comparison.
compound_smiles | Activity [%]
CCOC(=O)c1c(Cc2cccc(Cl)c2)[nH]c2c1cc(O)c1ccc(-c3ccccc3)cc12 | 28
CCOC(=O)c1c(Cc2ccccc2Cl)[nH]c2c1cc(O)c1ccccc12 | 14

[a] CCOC(=O)c1c(Cc2cccc(Cl)c2)n(-c2ccc(-c3ccccc3)cc2)c2ccc(O)cc12
[b] CCOC(=O)c1c(Nc2cccc(Cl)c2)[nH]c2c1cc(O)c1ccccc12
[c] CCOC(=O)c1c(CCc2cccc(Cl)c2)[nH]c2ccc(O)cc12
Problem: Task for the reader: rank each entry by its Activity, from the minimum upward. List the labels, following the order given in the request.
Result: b, a, c

###

tgt: Prostaglandin E synthase (Homo sapiens) (UniProt O14684)
protocol: Inhibition of mPGES1 in IL1-beta induced human A549 cells assessed as PGE2 production at 30 uM preincubated for 10 mins
Assay type: cell-based
Set-up: scale not given: the % may be the effect or the level left
observation_type: Activity (%)

compound_smiles | unit_symbol | Activity
CCOC(=O)c1c(Cc2ccccc2Cl)[nH]c2c1cc(O)c1ccccc12 | % | 35
CCOC(=O)c1c(Cc2cccc(Cl)c2)n(Cc2ccccc2)c2c1cc(O)c1ccccc12 | % | 35
CCOC(=O)c1c(Nc2cccc(Cl)c2)[nH]c2c1cc(O)c1ccccc12 | % | 35
CC(C)c1ccc2c(c1)c(SC(C)(C)C)c(CC(C)(C)C(=O)O)n2Cc1ccc(Cl)cc1 | % | 37
